Hello, the source for this data is ChEMBL document CHEMBL1143133, in case you need it.

run description: Displacement of [3H]prazosin from pig cortical membrane adrenergic alpha-1 receptor
Design: species or system Sus scrofa
pKi: −log10 of the molar value.
Where pKi equals or exceeds 7, the correct label is Fulfilled; where it does not, the label is Not fulfilled.

[
  {
    "test smiles": "COc1ccccc1N1CCN(Cc2ccc(OCCF)cc2)CC1",
    "assigned category": "Fulfilled"
  },
  {
    "test smiles": "COc1cc(CN2CCN(c3ccccc3OC)CC2)ccc1OCCF",
    "assigned category": "Fulfilled"
  },
  {
    "test smiles": "COc1cc(CN2CCN(c3ccc(Cl)cc3)CC2)c(OCCF)cc1OC",
    "assigned category": "Fulfilled"
  },
  {
    "test smiles": "COc1ccccc1N1CCN(Cc2cccc(OCCF)c2)CC1",
    "assigned category": "Fulfilled"
  },
  {
    "test smiles": "FCCOc1cccc(CN2CCN(c3ccc(Cl)cc3)CC2)c1",
    "assigned category": "Not fulfilled"
  },
  {
    "test smiles": "Clc1ccc(N2CCN(Cc3cc4ccccn4n3)CC2)cc1",
    "assigned category": "Not fulfilled"
  },
  {
    "test smiles": "COc1cc(CN2CCN(c3ccccc3OC)CC2)c(OCCF)cc1OC",
    "assigned category": "Fulfilled"
  },
  {
    "test smiles": "COc1cc(CN2CCN(c3ccc(Cl)cc3)CC2)ccc1OCCF",
    "assigned category": "Fulfilled"
  }
]

---

study target: D(3) dopamine receptor (Homo sapiens, UniProt P35462)
Sequence (P35462 whole entry): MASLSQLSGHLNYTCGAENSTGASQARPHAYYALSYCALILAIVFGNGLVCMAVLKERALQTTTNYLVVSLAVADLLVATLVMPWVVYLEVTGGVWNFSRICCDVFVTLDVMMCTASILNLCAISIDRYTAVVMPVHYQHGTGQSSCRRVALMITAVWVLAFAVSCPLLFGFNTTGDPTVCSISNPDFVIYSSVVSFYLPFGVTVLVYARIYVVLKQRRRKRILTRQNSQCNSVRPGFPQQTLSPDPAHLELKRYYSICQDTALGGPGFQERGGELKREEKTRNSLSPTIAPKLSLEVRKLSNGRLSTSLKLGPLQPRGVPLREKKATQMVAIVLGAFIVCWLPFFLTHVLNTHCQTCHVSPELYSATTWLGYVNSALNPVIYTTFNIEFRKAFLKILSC
run description: Binding affinity to human D3 receptor
Overview of reported Ki across a group of compounds:

[
  {
    "test smiles": "FCCOc1ccc(CN2CCN(c3ccc(Cl)cc3)CC2)cc1",
    "study target": "D(3) dopamine receptor (Homo sapiens, UniProt P35462)",
    "Ki / nM": 1100
  },
  {
    "test smiles": "COc1ccccc1N1CCN(Cc2ccc(OCCF)cc2)CC1",
    "study target": "D(3) dopamine receptor (Homo sapiens, UniProt P35462)",
    "Ki / nM": 77
  },
  {
    "test smiles": "COc1ccccc1N1CCN(Cc2cccc(OCCF)c2)CC1",
    "study target": "D(3) dopamine receptor (Homo sapiens, UniProt P35462)",
    "Ki / nM": 270
  },
  {
    "test smiles": "FCCOc1cccc(CN2CCN(c3ccc(Cl)cc3)CC2)c1",
    "study target": "D(3) dopamine receptor (Homo sapiens, UniProt P35462)",
    "Ki / nM": 1100
  },
  {
    "test smiles": "COc1cc(CN2CCN(c3ccc(Cl)cc3)CC2)ccc1OCCF",
    "study target": "D(3) dopamine receptor (Homo sapiens, UniProt P35462)",
    "Ki / nM": 4900
  }
]

---

study target: D(2) dopamine receptor (Homo sapiens, UniProt P14416)
Sequence (P14416 whole entry): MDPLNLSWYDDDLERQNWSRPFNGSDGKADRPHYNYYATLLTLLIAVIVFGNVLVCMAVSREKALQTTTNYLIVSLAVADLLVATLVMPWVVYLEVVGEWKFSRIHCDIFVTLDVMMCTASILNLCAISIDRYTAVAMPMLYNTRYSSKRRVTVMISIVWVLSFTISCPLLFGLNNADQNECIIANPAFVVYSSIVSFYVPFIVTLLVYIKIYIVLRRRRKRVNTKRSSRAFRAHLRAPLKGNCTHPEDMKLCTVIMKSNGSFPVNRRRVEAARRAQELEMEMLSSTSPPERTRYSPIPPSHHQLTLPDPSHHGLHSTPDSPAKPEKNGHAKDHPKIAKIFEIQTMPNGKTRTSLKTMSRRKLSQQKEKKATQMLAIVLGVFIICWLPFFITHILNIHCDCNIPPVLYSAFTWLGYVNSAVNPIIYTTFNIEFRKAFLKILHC
run description: Binding affinity to human dopamine D2 long receptor
value kind: log10 of Ki (log10 of the value in nM)

[
  {
    "test smiles": "COc1cc(CN2CCN(c3ccccc3OC)CC2)ccc1OCCF",
    "recorded number": 2.49
  },
  {
    "test smiles": "COc1cc(CN2CCN(c3ccc(Cl)cc3)CC2)ccc1OCCF",
    "recorded number": 4.32
  },
  {
    "test smiles": "COc1cc(CN2CCN(c3ccc(Cl)cc3)CC2)c(OCCF)cc1OC",
    "recorded number": 2.88
  },
  {
    "test smiles": "FCCOc1cccc(CN2CCN(c3ccc(Cl)cc3)CC2)c1",
    "recorded number": 2.77
  },
  {
    "test smiles": "COc1cc(CN2CCN(c3ccccc3OC)CC2)c(OCCF)cc1OC",
    "recorded number": 1.97
  },
  {
    "test smiles": "COc1ccccc1N1CCN(Cc2ccc(OCCF)cc2)CC1",
    "recorded number": 2.08
  },
  {
    "test smiles": "COc1ccccc1N1CCN(Cc2cccc(OCCF)c2)CC1",
    "recorded number": 1.76
  },
  {
    "test smiles": "FCCOc1ccc(CN2CCN(c3ccc(Cl)cc3)CC2)cc1",
    "recorded number": 3.04
  }
]
